# TESTED ON: LNX1_3, Q8TBB1
# Sequence (Q8TBB1 500-596): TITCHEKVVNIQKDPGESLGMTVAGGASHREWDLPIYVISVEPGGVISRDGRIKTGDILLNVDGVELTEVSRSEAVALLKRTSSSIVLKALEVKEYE
# TEST DETAILS: holdup assay
# Design: key: below the threshold = too weak to quantify, mostly under pKd 3.1 to 4
# APPLIED CONDITIONS: plain residues with an end cap or a label only (N-terminal biotin on a linker: ado-ado)
MEASURE NAME: pKd

Previously resolved entries follow.
GFGEERESIL [KIDINS220, Q9ULH0] : below the threshold
EEPEERHTEL [CES2, O00748] : below the threshold
TETASVCTKV [SLC23A1, Q9UHI7] : 3.5
QKNKDKEYYV [NRXN3_rs746444206, Q9Y4C0] : 3.99

// next item, pKd requested
Recorded result, FVHPILQSAV [PRKCA, P17252] , pKd: below the threshold
